Data provenance is the OligoGym collection.

target: IRF5
assay setup: ASO, A-431, 0.11111 µM
After the bases stand the sugars from the 5' end (letter, count) and the backbone: PS all phosphorothioate, else s phosphorothioate and o phosphodiester by linkage. Methylation of C is not given here. [mop] = methoxypropylphosphonate linkage; k = constrained ethyl (cEt); d = 2'-deoxy (DNA)
measured quantity: target mRNA inhibition (%)
Give the value, in units of %, as a plain number.

Please give the measured target mRNA inhibition for this sequence: CTGATATGATACCTAA (sugars k3 d10 k3, linkages s5 [mop]1 s9)
54

Please give the measured target mRNA inhibition for this sequence: CTGATATGATACCTAA (sugars k3 d2 k1 d7 k3, PS)
63

Please give the measured target mRNA inhibition for this sequence: CTGATATGATACCTAA (sugars k3 d10 k3, PS)
80

Please give the measured target mRNA inhibition for this sequence: TCTGATATGATACCTA (sugars k3 d2 k1 d7 k3, PS)
54
